SYSTEM: ScSla1-D3
TEST SUMMARY: SPOT peptide array binding signal intensity (averaged, normalized) (arbitrary units (background-subtracted, floor 0; scale differs between SH3 domains)); higher = stronger binding of the SH3 domain to the peptide
Entries and their SPOT peptide array binding signal intensity
// keep it numeric: no unit symbol after the value

KNPRRQLQIPRQQPS :: 21
TIRRRAPLSLLESHT :: 0.5
IRMPSNPALPKKLLN :: 277
VRTRRRPPPPPIPST :: 488

Would you kindly share the measured SPOT peptide array binding signal intensity for FPPKRKPLLRPQRSD ? 16

Would you kindly share the measured SPOT peptide array binding signal intensity for VPVAPPPPPASLGQS ? 1.5

Would you kindly share the measured SPOT peptide array binding signal intensity for YLTRPLPSTPNEDSR ? 1

Would you kindly share the measured SPOT peptide array binding signal intensity for AAHKTKPSIPPKKVE ? 2.5

Would you kindly share the measured SPOT peptide array binding signal intensity for GRLRPKRIAPWHLIQ ? 5

Would you kindly share the measured SPOT peptide array binding signal intensity for QRIRKIPGIPLMSVG ? 64

Would you kindly share the measured SPOT peptide array binding signal intensity for LRIKRKPVQTFFEFI ? 14

Would you kindly share the measured SPOT peptide array binding signal intensity for APERAVPILPPRNNV ? 1

Would you kindly share the measured SPOT peptide array binding signal intensity for APPLPPTAPPPPSLP ? 0.5

Would you kindly share the measured SPOT peptide array binding signal intensity for VSKLRSPNTPRRLRK ? 36.2

Would you kindly share the measured SPOT peptide array binding signal intensity for AERNYAPRLPRRETS ? 13

Would you kindly share the measured SPOT peptide array binding signal intensity for MARRRLPDRPPNGIG ? 100

Would you kindly share the measured SPOT peptide array binding signal intensity for LYEAMPPTLPHRDWK ? 85.5

Would you kindly share the measured SPOT peptide array binding signal intensity for YVRRRPRVRLEPLLS ? 29.9

Would you kindly share the measured SPOT peptide array binding signal intensity for RLPAPPPPPRRGPAP ? 3.5

Would you kindly share the measured SPOT peptide array binding signal intensity for SKIRPTPRKPSRMAT ? 202
